The reported numbers originate from patent US20100120738A1.

measurement.description: Lipophilicity by octanol partitioning
Assay type: physicochemical
test.conditions: octanol-water
measured.attribute: P value (octanol partitioning coefficient)
When you answer, write just the number.

- compound: "C1=Cc2nc1cc1ccc([n-]1)c(-c1ccccc1)c1nc(cc3ccc([n-]3)c2-c2ccccc2)C=C1.CC(=O)[O-].[Mn+3] [EUK-423]"
  experimental.result: 8.07
- compound: "C1=Cc2nc1cc1ccc([n-]1)c(C1CCOCC1)c1nc(cc3ccc([n-]3)c2C2CCOCC2)C=C1.[Cl-].[Mn+3] [EUK-451]"
  experimental.result: 0.219
- compound: "CCCc1c2nc(cc3ccc([n-]3)c(CCC)c3nc(cc4ccc1[n-]4)C=C3)C=C2.[Cl-].[Mn+3] [EUK-453]"
  experimental.result: 4.16
- compound: "C1=Cc2nc1cc1ccc([n-]1)c(C1CC1)c1nc(cc3ccc([n-]3)c2C2CC2)C=C1.CC(=O)[O-].[Mn+3] [EUK-418]"
  experimental.result: 3.53
- compound: "CC(=O)[O-].COc1ccc(-c2c3nc(cc4ccc([n-]4)c(-c4ccc(OC)cc4)c4nc(cc5ccc2[n-]5)C=C4)C=C3)cc1.[Mn+3] [EUK-450]"
  experimental.result: 4.46

In one line, give reported P value (octanol partitioning coefficient) of the entry CC(=O)[O-].CCc1c2nc(c(CC)c3ccc([n-]3)c(CC)c3nc(c(CC)c4ccc1[n-]4)C=C3)C=C2.[Mn+3] [EUK-425] . 8.56

In one line, give reported P value (octanol partitioning coefficient) of the entry C1=Cc2nc1cc1ccc([n-]1)c(C1CCCCC1)c1nc(cc3ccc([n-]3)c2C2CCCCC2)C=C1.[Cl-].[Mn+3] [EUK-452] . 93.97

====

measurement.description: Superoxide dismutase (SOD) activity
Assay type: biochemical
test.conditions: cuvette format; read-out: Cuvette IC50
measured.attribute: IC50 (µM)
Numbers only; they are read as µM.

In one line, give reported IC50 of the entry CCCc1c2nc(cc3ccc([n-]3)c(CCC)c3nc(cc4ccc1[n-]4)C=C3)C=C2.[Cl-].[Mn+3] . 60.9

====

Percentage remaining after 90 mins in SGF listing for selected compounds.
measurement.description: Stability in USP simulated gastric fluid (SGF)
Assay type: in vitro ADME
test.conditions: 37° C., pH approx. 1.2
Numbers only; they are read as %.

- smiles.structure: "CCCc1c2nc(cc3ccc([n-]3)c(CCC)c3nc(cc4ccc1[n-]4)C=C3)C=C2.[Cl-].[Mn+3]"
  experimental.result: 98.4
- smiles.structure: "C1=Cc2nc1cc1ccc([n-]1)c(-c1ccccc1)c1nc(cc3ccc([n-]3)c2-c2ccccc2)C=C1.CC(=O)[O-].[Mn+3]"
  experimental.result: 91.2
- smiles.structure: "C1=Cc2nc1cc1ccc([n-]1)c(C1CC1)c1nc(cc3ccc([n-]3)c2C2CC2)C=C1.CC(=O)[O-].[Mn+3]"
  experimental.result: 92.2

Okay, next one:
In one line, give reported Percentage remaining after 90 mins in SGF of the entry C1=Cc2nc1cc1ccc([n-]1)c(C1CCOCC1)c1nc(cc3ccc([n-]3)c2C2CCOCC2)C=C1.[Cl-].[Mn+3] . 100

====

measurement.description: Superoxide dismutase (SOD) activity
Type: biochemical
test.conditions: microplate format; read-out: Microplate IC50
Labelling: IC50 reported below 800 nM becomes 1 (yes); at or above becomes 0 (no).

Observe how each entry below is paired with its result.
- compound: "C1=Cc2nc1cc1ccc([n-]1)c(C1CC1)c1nc(cc3ccc([n-]3)c2C2CC2)C=C1.CC(=O)[O-].[Mn+3] [EUK-418]"
  class: "1 (yes)"
- compound: "C1=Cc2nc1cc1ccc([n-]1)c(C1CCOCC1)c1nc(cc3ccc([n-]3)c2C2CCOCC2)C=C1.[Cl-].[Mn+3] [EUK-451]"
  class: "0 (no)"
- compound: "CC(=O)[O-].COc1ccc(-c2c3nc(cc4ccc([n-]4)c(-c4ccc(OC)cc4)c4nc(cc5ccc2[n-]5)C=C4)C=C3)cc1.[Mn+3] [EUK-450]"
  class: "0 (no)"
- compound: "C1=Cc2nc1cc1ccc([n-]1)c(C1CCCCC1)c1nc(cc3ccc([n-]3)c2C2CCCCC2)C=C1.[Cl-].[Mn+3] [EUK-452]"
  class: "0 (no)"
- compound: "CCCc1c2nc(cc3ccc([n-]3)c(CCC)c3nc(cc4ccc1[n-]4)C=C3)C=C2.[Cl-].[Mn+3] [EUK-453]"
  class: "0 (no)"

Given CC(=O)[O-].CCc1c2nc(c(CC)c3ccc([n-]3)c(CC)c3nc(c(CC)c4ccc1[n-]4)C=C3)C=C2.[Mn+3] [EUK-425] , is recorded IC50 strictly lower than 800 nM? 1 (yes)

Given C1=Cc2nc1cc1ccc([n-]1)c(-c1ccccc1)c1nc(cc3ccc([n-]3)c2-c2ccccc2)C=C1.CC(=O)[O-].[Mn+3] [EUK-423] , is recorded IC50 strictly lower than 800 nM? 0 (no)

====

measurement.description: Stability in USP simulated gastric fluid (SGF)
Assay type: in vitro ADME
test.conditions: 37° C., pH approx. 1.2
Excerpt: Aliquots of SGF were withdrawn and intact compound quantitated by HPLC-UV.
measured.attribute: Percentage remaining after 90 mins in SGF (%)
Numbers only; they are read as %.

Solved cases (2 shown):
- smiles.structure: "CC(=O)[O-].CCc1c2nc(c(CC)c3ccc([n-]3)c(CC)c3nc(c(CC)c4ccc1[n-]4)C=C3)C=C2.[Mn+3]"
  experimental.result: 97.0
- smiles.structure: "C1=Cc2nc1cc1ccc([n-]1)c(C1CCCCC1)c1nc(cc3ccc([n-]3)c2C2CCCCC2)C=C1.[Cl-].[Mn+3]"
  experimental.result: 98.2

In one line, give reported Percentage remaining after 90 mins in SGF of the entry CC(=O)[O-].COc1ccc(-c2c3nc(cc4ccc([n-]4)c(-c4ccc(OC)cc4)c4nc(cc5ccc2[n-]5)C=C4)C=C3)cc1.[Mn+3] . 98.1

====

measurement.description: Lipophilicity by octanol partitioning
Assay type: physicochemical
test.conditions: octanol-water
Labelling: Log10 P value reported below 0.9 becomes true; at or above becomes false.

- molecule: "CC(=O)[O-].COc1ccc(-c2c3nc(cc4ccc([n-]4)c(-c4ccc(OC)cc4)c4nc(cc5ccc2[n-]5)C=C4)C=C3)cc1.[Mn+3] [EUK-450]"
  class: "true"

// switching to the query molecule
Given CCCc1c2nc(cc3ccc([n-]3)c(CCC)c3nc(cc4ccc1[n-]4)C=C3)C=C2.[Cl-].[Mn+3] [EUK-453] , is recorded Log10 P value strictly lower than 0.9? true

====

measurement.description: Superoxide dismutase (SOD) activity
Format: biochemical
test.conditions: cuvette format; read-out: Cuvette IC50
pIC50: −log10 of the molar value.
Assign label 1 whenever pIC50 does not fall below 5; assign label 0 whenever it does.

- molecule: "C1=Cc2nc1cc1ccc([n-]1)c(C1CCOCC1)c1nc(cc3ccc([n-]3)c2C2CCOCC2)C=C1.[Cl-].[Mn+3]"
  class: "label 0"
- molecule: "C1=Cc2nc1cc1ccc([n-]1)c(-c1ccccc1)c1nc(cc3ccc([n-]3)c2-c2ccccc2)C=C1.CC(=O)[O-].[Mn+3]"
  class: "label 0"
- molecule: "CC(=O)O.CCOc1cccc(C=NCCN=Cc2cccc(OCC)c2O)c1O.[Mn] [EUK-189, reference compound]"
  class: "label 1"
- molecule: "C1=Cc2nc1cc1ccc([n-]1)c(C1CCCCC1)c1nc(cc3ccc([n-]3)c2C2CCCCC2)C=C1.[Cl-].[Mn+3]"
  class: "label 0"

// switching to the query molecule
Does the reported pIC50 for CC(=O)[O-].CCc1c2nc(c(CC)c3ccc([n-]3)c(CC)c3nc(c(CC)c4ccc1[n-]4)C=C3)C=C2.[Mn+3] fall at or above the 5 mark? label 0

====

measurement.description: Lipophilicity by octanol partitioning
Format: physicochemical
test.conditions: octanol-water
measured.attribute: Log10 P value

Solved cases (4 shown):
- compound: "C1=Cc2nc1cc1ccc([n-]1)c(C1CCOCC1)c1nc(cc3ccc([n-]3)c2C2CCOCC2)C=C1.[Cl-].[Mn+3] [EUK-451]"
  experimental.result: "−0.660 ± 0.011"
- compound: "CC(=O)[O-].CCc1c2nc(c(CC)c3ccc([n-]3)c(CC)c3nc(c(CC)c4ccc1[n-]4)C=C3)C=C2.[Mn+3] [EUK-425]"
  experimental.result: "0.932 ± 0.006"
- compound: "C1=Cc2nc1cc1ccc([n-]1)c(C1CC1)c1nc(cc3ccc([n-]3)c2C2CC2)C=C1.CC(=O)[O-].[Mn+3] [EUK-418]"
  experimental.result: "0.548 ± 0.009"
- compound: "C1=Cc2nc1cc1ccc([n-]1)c(-c1ccccc1)c1nc(cc3ccc([n-]3)c2-c2ccccc2)C=C1.CC(=O)[O-].[Mn+3] [EUK-423]"
  experimental.result: "0.907 ± 0.002"

Okay, next one:
In one line, give reported Log10 P value of the entry C1=Cc2nc1cc1ccc([n-]1)c(C1CCCCC1)c1nc(cc3ccc([n-]3)c2C2CCCCC2)C=C1.[Cl-].[Mn+3] [EUK-452] . 1.973 ± 0.008
